# target: ACVR1B (human) (UniProt P36896)
# Sequence (P36896 whole entry, looked up): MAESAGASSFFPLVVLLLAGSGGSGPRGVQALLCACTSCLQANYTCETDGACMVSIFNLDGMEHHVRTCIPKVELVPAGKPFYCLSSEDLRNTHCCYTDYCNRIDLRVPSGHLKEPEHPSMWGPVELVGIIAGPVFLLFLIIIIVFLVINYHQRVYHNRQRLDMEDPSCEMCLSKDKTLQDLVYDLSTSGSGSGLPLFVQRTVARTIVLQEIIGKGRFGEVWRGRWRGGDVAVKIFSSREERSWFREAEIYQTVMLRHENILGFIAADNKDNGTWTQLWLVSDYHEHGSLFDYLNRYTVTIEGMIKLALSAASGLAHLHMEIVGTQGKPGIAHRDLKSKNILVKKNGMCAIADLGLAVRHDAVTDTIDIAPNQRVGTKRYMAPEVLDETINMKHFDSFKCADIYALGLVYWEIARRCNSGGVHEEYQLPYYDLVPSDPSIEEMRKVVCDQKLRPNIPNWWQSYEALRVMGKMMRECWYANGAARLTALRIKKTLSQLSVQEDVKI
# protocol-description: radiometric filter-binding kinase assay, Kinase HotSpot
# condition-set: compound 0.5 µM; ATP 10 µM
Please go through the items and note down their residual activity.
The figure you give is taken to be in %; do not add the unit.

Fill in the recorded residual activity for this molecule, with ACVR1B (human) (UniProt P36896) as test system: COc1cc2ncc(-c3ccccc3)nc2cc1OC
95.2

Fill in the recorded residual activity for this molecule, with ACVR1B (human) (UniProt P36896) as test system: CC(C)[C@H](CO)Nc1nc(Nc2cc(N)cc(Cl)c2)c2ncn(C(C)C)c2n1
107

Fill in the recorded residual activity for this molecule, with ACVR1B (human) (UniProt P36896) as test system: Cn1cnc2cc3c(Nc4cccc(Br)c4)ncnc3cc21
111

Fill in the recorded residual activity for this molecule, with ACVR1B (human) (UniProt P36896) as test system: O=C(O)/C=C/c1cc(Br)c(Br)c(Br)c1Br
103

Fill in the recorded residual activity for this molecule, with ACVR1B (human) (UniProt P36896) as test system: O=C(CCCc1ccc(-c2ccccc2F)cc1)Nc1ccc(O)cc1
95.9

Fill in the recorded residual activity for this molecule, with ACVR1B (human) (UniProt P36896) as test system: O=C(Nc1cccc(Nc2cc(Nc3cccc(C(F)(F)F)c3)ncn2)c1)C1CC1
101

Fill in the recorded residual activity for this molecule, with ACVR1B (human) (UniProt P36896) as test system: O=C1Cc2c([nH]c3ccc(Br)cc23)-c2ccccc2N1
99.8

Fill in the recorded residual activity for this molecule, with ACVR1B (human) (UniProt P36896) as test system: Cn1nc2c3c(cccc31)C(=O)c1ccccc1-2
102

Fill in the recorded residual activity for this molecule, with ACVR1B (human) (UniProt P36896) as test system: Nc1nnc2[nH]c3ccccc3nc1-2
99.9

Fill in the recorded residual activity for this molecule, with ACVR1B (human) (UniProt P36896) as test system: CC(C)c1nn(-c2c(Cl)cccc2Cl)c2nc(Cc3ccc(OCCO)cc3)nc(O)c12
109

Fill in the recorded residual activity for this molecule, with ACVR1B (human) (UniProt P36896) as test system: O=C1NC(=O)C(c2cn(CCCO)c3ncccc23)=C1c1cnccn1
100
